Target: hERG potassium channel (Homo sapiens, UniProt Q12809)
Construct: expressed in transfected cells; host or cells: HEK293
Sequence (Q12809 whole entry): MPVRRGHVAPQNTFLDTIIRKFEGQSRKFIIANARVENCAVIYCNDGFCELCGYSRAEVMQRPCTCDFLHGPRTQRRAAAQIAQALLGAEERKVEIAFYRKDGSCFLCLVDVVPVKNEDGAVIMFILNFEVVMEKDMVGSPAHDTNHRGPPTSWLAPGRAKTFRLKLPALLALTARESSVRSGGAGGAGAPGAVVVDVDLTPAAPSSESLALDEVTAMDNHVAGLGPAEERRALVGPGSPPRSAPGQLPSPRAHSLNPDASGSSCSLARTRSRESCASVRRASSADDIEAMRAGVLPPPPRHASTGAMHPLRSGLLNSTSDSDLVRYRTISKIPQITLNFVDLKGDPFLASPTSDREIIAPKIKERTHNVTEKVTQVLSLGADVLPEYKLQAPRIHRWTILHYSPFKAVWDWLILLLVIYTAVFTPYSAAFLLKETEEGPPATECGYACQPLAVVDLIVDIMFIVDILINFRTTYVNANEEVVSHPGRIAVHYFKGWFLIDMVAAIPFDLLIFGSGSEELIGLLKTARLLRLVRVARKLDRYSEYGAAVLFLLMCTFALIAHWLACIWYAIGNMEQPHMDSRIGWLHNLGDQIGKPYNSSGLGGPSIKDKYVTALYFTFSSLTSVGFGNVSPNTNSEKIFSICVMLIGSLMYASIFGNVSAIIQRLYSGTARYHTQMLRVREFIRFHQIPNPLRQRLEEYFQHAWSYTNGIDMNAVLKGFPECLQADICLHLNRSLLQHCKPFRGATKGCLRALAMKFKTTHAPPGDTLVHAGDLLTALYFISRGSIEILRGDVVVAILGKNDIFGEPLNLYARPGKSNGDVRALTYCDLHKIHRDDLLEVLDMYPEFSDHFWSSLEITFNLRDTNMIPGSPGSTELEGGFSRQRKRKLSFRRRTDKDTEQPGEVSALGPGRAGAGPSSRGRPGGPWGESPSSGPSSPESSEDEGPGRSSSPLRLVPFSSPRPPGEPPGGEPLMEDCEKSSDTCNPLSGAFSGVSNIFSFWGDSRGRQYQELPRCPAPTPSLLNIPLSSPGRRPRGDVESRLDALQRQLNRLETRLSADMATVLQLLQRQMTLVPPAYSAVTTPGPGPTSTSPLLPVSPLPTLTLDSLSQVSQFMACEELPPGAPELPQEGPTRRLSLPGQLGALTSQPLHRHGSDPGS
Assay: Blocking of hERG potassium current, automatic patch clamp on HEK293-hERG cells
Assay type: cell-based
Experimental: The blocking effect of the compounds of the present invention and the positive compound TRV-130 (Journal of Pharmacology and Experimental Therapeutics, Volume 344, Issue 3, Pages 708-717, 2013) on hERG potassium current was tested on a stable cell line transfected with hERG potassium channel using an automatic patch clamp. […] The blocking effect of the compounds of the present invention on hERG potassium current was determined by the above test, and the IC50 values are shown in Table 3.
Exercise: state measured IC50 for each of the compounds provided.
A number alone suffices; assume µM.

Recorded IC50 for COc1ccsc1CNCC[C@@]1(c2ccccn2)CCOC2(CCCC2)C1 [TRV-130, reference compound] , please?
1.6

Recorded IC50 for c1ccc([C@]2(CCN[C@H]3CCOc4ccccc43)CCOC3(CCCC3)C2)nc1 (single isomer, unassigned) [Example 5] , please?
6.2

Recorded IC50 for CO[C@H]1CC[C@H](NCC[C@@]2(c3ccccn3)CCOC3(CCCC3)C2)c2ccccc21 , please?
8.6
